Just for reference, patent US7115632B1 is where these values come from.

Molecular target: MMP-13 (Homo sapiens, UniProt P45452)
Construct: made in house; host or cells: insect cells, baculovirus expression
Assay: In vitro metalloprotease inhibition, fluorogenic MCA peptide substrate
Format: biochemical
Conditions: Inhibition Table B
Counter-ions that a name gives are not always drawn.
reportedEndpoint: IC50 (µM)
Numbers only; they are read as µM.

Please indicate IC50 recorded for CCCCOC1CCN(S(=O)(=O)c2ccc3c(c2C(=O)NO)OCO3)CC1
3.7

For the compound O=C(NO)c1ccccc1S(=O)(=O)N1CCC(n2c(=O)[nH]c3ccccc32)CC1 , give its measured IC50 value.
2

Report measured IC50; entry is COc1cccc(OC2CCN(S(=O)(=O)c3ccc(OC)c(OC)c3C(=O)NO)CC2)c1
0.25

Consider the compound COCCOc1cccc(S(=O)(=O)N2CCC(Oc3ccc(C(F)(F)F)cc3)CC2)c1C(=O)NO . State its measured IC50.
0.0043

Tell me its IC50 given COc1ccc(S(=O)(=O)N2CCC(Sc3ccccc3)CC2)c(C(=O)NO)c1OC as the entry.
0.003

Report measured IC50; entry is COc1ccc(S(=O)(=O)N2CCN(Cc3ccccc3)CC2)c(C(=O)NO)c1OC [Example 52, monohydrochloride]
4

Return IC50 (reported value) for this compound: COc1ccc(S(=O)(=O)N2CCC(Oc3ccc(-c4ccccc4)cc3)CC2)c(C(=O)NO)c1OC
0.0018

* * *

Molecular target: MMP-2 (Homo sapiens, UniProt P08253)
Construct: made in house; provided by Dr. Gregory Goldberg, Washington University
Sequence (P08253 110-660): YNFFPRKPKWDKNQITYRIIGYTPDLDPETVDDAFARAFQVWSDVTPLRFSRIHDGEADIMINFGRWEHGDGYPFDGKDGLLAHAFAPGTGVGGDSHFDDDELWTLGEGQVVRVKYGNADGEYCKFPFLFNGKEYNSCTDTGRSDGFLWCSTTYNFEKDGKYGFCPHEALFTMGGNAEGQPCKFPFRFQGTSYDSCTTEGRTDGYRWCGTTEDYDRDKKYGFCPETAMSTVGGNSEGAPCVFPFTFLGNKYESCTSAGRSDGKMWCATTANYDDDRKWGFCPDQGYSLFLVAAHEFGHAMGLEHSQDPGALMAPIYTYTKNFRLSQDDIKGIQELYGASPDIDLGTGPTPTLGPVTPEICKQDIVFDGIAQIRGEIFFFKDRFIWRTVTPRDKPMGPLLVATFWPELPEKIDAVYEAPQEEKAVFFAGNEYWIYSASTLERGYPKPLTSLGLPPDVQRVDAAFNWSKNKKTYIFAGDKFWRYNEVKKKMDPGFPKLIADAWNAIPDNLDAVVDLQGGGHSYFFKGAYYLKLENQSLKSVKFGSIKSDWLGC
Experiment: In vitro metalloprotease inhibition, fluorogenic MCA peptide substrate
Type: biochemical
Details: Inhibition Table B
Where a name gives a salt, the structure may show the parent alone.
reportedEndpoint: IC50 (nM)
All answers are understood in nM, so give the number only.

Annotate the molecule CCCCCCCOC1CCN(S(=O)(=O)c2ccc3c(c2C(=O)NO)OCO3)CC1 [Example 44] with its measured IC50.
206

Please report the measured IC50 for COCCOc1cccc(S(=O)(=O)N2CCC(Oc3ccc(C(F)(F)F)cc3)CC2)c1C(=O)NO [Example 23]
1

Specify reported IC50 for the molecule shown: COc1ccc(S(=O)(=O)N2CCC(Oc3ccc4c(c3)OCO4)CC2)c(C(=O)NO)c1OC [Example 50]
1.1

Give the value of IC50 reported for the following: O=C(NO)c1c(S(=O)(=O)N2CCC(Oc3ccc(C(F)(F)F)cc3)CC2)ccc2c1OCCO2 [Example 31]
1.4

Entry O=C(NO)c1ccccc1S(=O)(=O)N1CCC(Oc2ccccn2)CC1 [Example 42, monohydrochloride] needs its IC50 filled in; supply it.
42

* * *

Biological target: MT1-MMP (Homo sapiens, UniProt P50281)
Where a name gives a salt, the structure may show the parent alone.
Assign labels as follows, please: Satisfied for IC50 below 300 nM; Not satisfied for IC50 equal to or exceeding 300 nM.

Consider the compound COc1ccc(S(=O)(=O)N2CCC(Oc3ccc(-c4cccc(C(F)(F)F)c4)cc3)CC2)c(C(=O)NO)c1OC . Is its IC50 strictly less than 300 nM?
Not satisfied

Consider the compound COc1ccc(N2CCN(S(=O)(=O)c3ccc(OC)c(OC)c3C(=O)NO)CC2)cc1 [Example 41, monohydrochloride] . Is its IC50 strictly less than 300 nM?
Not satisfied

Is it true that IC50 reported for COc1ccccc1-c1ccc(OC2CCN(S(=O)(=O)c3ccc(OC)c(OC)c3C(=O)NO)CC2)cc1 is less than 300 nM?
Not satisfied

Dear colleague, could you confirm whether IC50 of COc1ccc(S(=O)(=O)N2CCC(Oc3ccc4c(c3)OCO4)CC2)c(C(=O)NO)c1OC falls below 300 nM? Thanks.
Satisfied

Determine whether this compound shows IC50 lower than 300 nM (ties excluded): COc1ccc(S(=O)(=O)N2CCN(c3ccc(C(F)(F)F)cc3)CC2)c(C(=O)NO)c1OC
Not satisfied
